Reported solubility (g/100 g solution) is given for each of the following molecules.
- test: xn = mol fraction of the nth substance listed, in the solute-free solvent
- condition label: 303.15 K; x2 = 0.3698
Provide a numeric answer; units are not to be included.

Some solved cases for reference:
| molecule | measured property | value observed |
| --- | --- | --- |
| Cc1[nH]c(=O)c(C#N)cc1-c1ccncc1 + CCO + O | solubility (g/100 g solution) | 0.00596 |
| Nc1cccc(S(=O)(=O)c2cccc(N)c2)c1 + CCO + O | solubility (g/100 g solution) | 1.34 |
| CC(C)OC(=O)C(C)NP(=O)(OCC1OC(n2ccc(=O)[nH]c2=O)C(C)(F)C1O)Oc1ccccc1 (centres undefined) + CCO + O | solubility (g/100 g solution) | 24.9 |

# input Quickly give me recorded solubility (g/100 g solution) for COc1cc2c(cc1OC)-c1cc3ccc(OC)c(OC)c3c[n+]1CC2.[Cl-] + CCO + O
# output 3.8

* * *

Reported solubility (g/100 g solution) is given for each of the following compounds.
- test: xn = mol fraction of the nth substance listed, in the solute-free solvent
- condition label: 323.15 K; x2 = 0.5454
Provide a numeric answer; units are not to be included.

Some solved cases for reference:
| compound | measured property | value observed |
| --- | --- | --- |
| Nc1nccnc1Cl + CC(C)O + O | solubility (g/100 g solution) | 2.1 |
| c1ccc2[nH]c(-c3cscn3)nc2c1 + CC(C)O + O | solubility (g/100 g solution) | 0.529 |
| c1ccc2[nH]c(-c3cscn3)nc2c1 + CCCO + O | solubility (g/100 g solution) | 0.983 |
| Cc1[nH]c(=O)c(C#N)cc1-c1ccncc1 + CC(C)O + O | solubility (g/100 g solution) | 0.0291 |

# input Quickly give me recorded solubility (g/100 g solution) for Nc1cccc(S(=O)(=O)c2cccc(N)c2)c1 + CC(C)O + O
# output 2.62

# input Quickly give me recorded solubility (g/100 g solution) for CN1CCN(C2=Nc3cc(Cl)ccc3Nc3ccccc32)CC1 + CC(C)O + O
# output 2.92

* * *

- test: xn = mol fraction of the nth substance listed, in the solute-free solvent
- condition label: 313.15 K; x2 = 0.2307
Reported solubility (g/100 g solution) is given for each of the following compounds.
Provide a numeric answer; units are not to be included.

| compound | solubility (g/100 g solution) |
| --- | --- |
| CN1CCN(C2=Nc3cc(Cl)ccc3Nc3ccccc32)CC1 + CC(C)O + O | 0.803 |
| c1ccc2[nH]c(-c3cscn3)nc2c1 + CCCO + O | 0.321 |
| Cc1[nH]c(=O)c(C#N)cc1-c1ccncc1 + CC(C)O + O | 0.0135 |
| Nc1cccc(S(=O)(=O)c2cccc(N)c2)c1 + CC(C)O + O | 1.28 |

# input Quickly give me recorded solubility (g/100 g solution) for Nc1nccnc1Cl + CC(C)O + O
# output 0.962

# input Quickly give me recorded solubility (g/100 g solution) for c1ccc2[nH]c(-c3cscn3)nc2c1 + CC(C)O + O
# output 0.169

* * *

- test: xn = mol fraction of the nth substance listed, in the solute-free solvent
- condition label: 293.15 K; x2 = 0.8
Label Condition met for high-side solubility (g/100 g solution) (at or above 7) and Condition not met for low-side solubility (g/100 g solution) (below it).

Past entries and their recorded results:
| compound | label value |
| --- | --- |
| S=c1[nH]ncs1 + CO + O | Condition met |
| Cc1ncc(C[n+]2csc(CCO)c2C)c(N)n1.O=[N+]([O-])[O-] + O + CC(C)O | Condition not met |
| S=c1[nH]ncs1 + CC(C)=O + O | Condition met |
| CC(N)C(=O)O (stereo unspecified) + O + CCCO | Condition not met |
| Cc1ncc(C[n+]2csc(CCO)c2C)c(N)n1.O=[N+]([O-])[O-] + O + CC(C)=O | Condition not met |

Here is the next item to consider.
# input Check this compound for solubility (g/100 g solution) at or above 7: OCCN(CCO)c1nc(N2CCCCC2)c2nc(N(CCO)CCO)nc(N3CCCCC3)c2n1 + CC(C)O + O
# output Condition not met

* * *

- test: xn = mol fraction of the nth substance listed, in the solute-free solvent
- condition label: 303.15 K; x2 = 0.6
Reported solubility (g/100 g solution) is given for each of the following molecules.
Provide a numeric answer; units are not to be included.

Some solved cases for reference:
| molecule | solubility (g/100 g solution) |
| --- | --- |
| OCCN(CCO)c1nc(N2CCCCC2)c2nc(N(CCO)CCO)nc(N3CCCCC3)c2n1 + CO + O | 2.21 |
| CC(N)C(=O)O (stereo not given) + O + CO | 1.88 |
| OCCN(CCO)c1nc(N2CCCCC2)c2nc(N(CCO)CCO)nc(N3CCCCC3)c2n1 + CCO + O | 9.58 |
| OCCN(CCO)c1nc(N2CCCCC2)c2nc(N(CCO)CCO)nc(N3CCCCC3)c2n1 + CC(C)O + O | 14.6 |
| CC(N)C(=O)O (stereo not given) + O + CC(C)=O | 0.22 |

# input Quickly give me recorded solubility (g/100 g solution) for CC(N)C(=O)O (stereo not given) + O + CCCO
# output 0.892

# input Quickly give me recorded solubility (g/100 g solution) for S=c1[nH]ncs1 + CCO + O
# output 16.5

# input Quickly give me recorded solubility (g/100 g solution) for CC(N)C(=O)O (stereo not given) + O + CCO
# output 0.83

# input Quickly give me recorded solubility (g/100 g solution) for S=c1[nH]ncs1 + CO + O
# output 14

# input Quickly give me recorded solubility (g/100 g solution) for Cc1ncc(C[n+]2csc(CCO)c2C)c(N)n1.O=[N+]([O-])[O-] + O + CC(C)O
# output 1.01

* * *

- test: xn = mol fraction of the nth substance listed, in the solute-free solvent
- condition label: 308.15 K; x2 = 0.6
Reported solubility (g/100 g solution) is given for each of the following compounds.

Some solved cases for reference:
| compound | solubility (g/100 g solution) |
| --- | --- |
| Cc1ncc(C[n+]2csc(CCO)c2C)c(N)n1.O=[N+]([O-])[O-] + O + CC(C)=O | 1.64 |
| S=c1[nH]ncs1 + CC(C)=O + O | 33.2 |
| Cc1ncc(C[n+]2csc(CCO)c2C)c(N)n1.O=[N+]([O-])[O-] + O + CO | 3.23 |
| Cc1ncc(C[n+]2csc(CCO)c2C)c(N)n1.O=[N+]([O-])[O-] + O + CC(C)O | 1.28 |
| CCCCCOC(=O)Nc1nc(=O)n(C2OC(C)C(O)C2O)cc1F (stereo unspecified) + CCOC(C)=O + CCCCCC | 1.02 |

The record that follows has no solubility (g/100 g solution) shown yet.
# input Quickly give me recorded solubility (g/100 g solution) for S=c1[nH]ncs1 + CCCO + O
# output 18.2

* * *

- test: xn = mol fraction of the nth substance listed, in the solute-free solvent
- condition label: 323.15 K; x2 = 0.2
Reported solubility (g/100 g solution) is given for each of the following compounds.
Provide a numeric answer; units are not to be included.

Some solved cases for reference:
| compound | solubility (g/100 g solution) |
| --- | --- |
| CC(N)C(=O)O (centres undefined) + O + CO | 0.424 |
| CC(N)C(=O)O (centres undefined) + O + CCCO | 0.114 |
| S=c1[nH]ncs1 + CO + O | 8.64 |
| S=c1[nH]ncs1 + CC(C)=O + O | 27.1 |
| CC(N)C(=O)O (centres undefined) + O + CC(C)=O | 0.0786 |
| S=c1[nH]ncs1 + CCCO + O | 20.8 |
| CC(N)C(=O)O (centres undefined) + O + CC(C)O | 0.0801 |
| S=c1[nH]ncs1 + CCO + O | 15.2 |

The record that follows has no solubility (g/100 g solution) shown yet.
# input Quickly give me recorded solubility (g/100 g solution) for CC(N)C(=O)O (centres undefined) + O + CCO
# output 0.124

* * *

- test: xn = mol fraction of the nth substance listed, in the solute-free solvent
- condition label: 293.15 K; x2 = 0.1436
Reported solubility (g/100 g solution) is given for each of the following molecules.
Provide a numeric answer; units are not to be included.

Some solved cases for reference:
| molecule | solubility (g/100 g solution) |
| --- | --- |
| Cc1[nH]c(=O)c(C#N)cc1-c1ccncc1 + CCO + O | 0.00192 |
| COc1cc2c(cc1OC)-c1cc3ccc(OC)c(OC)c3c[n+]1CC2.[Cl-] + CCO + O | 2.03 |
| Nc1cccc(S(=O)(=O)c2cccc(N)c2)c1 + CCO + O | 0.357 |

The record that follows has no solubility (g/100 g solution) shown yet.
# input Quickly give me recorded solubility (g/100 g solution) for CC(C)OC(=O)C(C)NP(=O)(OCC1OC(n2ccc(=O)[nH]c2=O)C(C)(F)C1O)Oc1ccccc1 (centres undefined) + CCO + O
# output 7.78
